target: ST3 (Homo sapiens); assay: Acceptor specificity of soluble ST3 (AZ3) in COS-1 media; details: acceptor 2.0 mM
Would you mind labelling by Relative rate (%) ST3? At or over 20% is true, under is false.

molecule: CC(=O)N[C@H]1C(O)O[C@H](CO)[C@@H](O[C@@H]2O[C@H](CO)[C@H](O)[C@H](O)[C@H]2O)[C@@H]1O (stereo partly drawn)
target_or_test_system: ST3 (Homo sapiens)
cat: true

molecule: CC(=O)N[C@H]1C(O)O[C@H](CO)[C@H](O)[C@@H]1O[C@@H]1O[C@H](CO)[C@H](O)[C@H](O)[C@H]1O (stereo partly drawn)
target_or_test_system: ST3 (Homo sapiens)
cat: true

molecule: CC(=O)N[C@H]1[C@H](O[C@H]2[C@@H](O)[C@@H](CO)O[C@@H](O[C@H]3[C@H](O)[C@@H](O)C(O)O[C@@H]3CO)[C@@H]2O)O[C@H](CO)[C@@H](O[C@@H]2O[C@H](CO)[C@H](O)[C@H](O)[C@H]2O)[C@@H]1O[C@@H]1O[C@@H](C)[C@@H](O)[C@@H](O)[C@@H]1O (stereo partly drawn)
target_or_test_system: ST3 (Homo sapiens)
cat: false

molecule: CC(=O)N[C@H]1[C@H](O[C@H]2[C@@H](O)[C@@H](CO)O[C@@H](O[C@H]3[C@H](O)[C@@H](O)C(O)O[C@@H]3CO)[C@@H]2O)O[C@H](CO)[C@@H](O[C@@H]2O[C@@H](C)[C@@H](O)[C@@H](O)[C@@H]2O)[C@@H]1O[C@@H]1O[C@H](CO)[C@H](O)[C@H](O)[C@H]1O (stereo partly drawn)
target_or_test_system: ST3 (Homo sapiens)
cat: false

molecule: CC(=O)N[C@H]1[C@H](O[C@H]2[C@@H](O)[C@@H](CO)O[C@@H](O[C@H]3[C@H](O)[C@@H](O)C(O)O[C@@H]3CO)[C@@H]2O)O[C@H](CO)[C@@H](O[C@@H]2O[C@H](CO)[C@H](O)[C@H](O)[C@H]2O)[C@@H]1O (stereo partly drawn)
target_or_test_system: ST3 (Homo sapiens)
cat: true

molecule: CC(=O)N[C@H]1[C@H](O[C@H]2[C@@H](O)[C@@H](CO)O[C@@H](O[C@H]3[C@H](O)[C@@H](O)C(O)O[C@@H]3CO)[C@@H]2O)O[C@H](CO)[C@@H](O)[C@@H]1O[C@@H]1O[C@H](CO)[C@H](O)[C@H](O)[C@H]1O (stereo partly drawn)
target_or_test_system: ST3 (Homo sapiens)
cat: false

* * *

The following compounds are shown together with reported Relative rate (%) ST3 values.
biological target: ST3 (Homo sapiens, UniProt Q11206); assay: Acceptor specificity of soluble ST3 (AZ3) in COS-1 media; conditions: acceptor 0.2 mM
Sequence (Q11206 1-332 isoform Q11206-2): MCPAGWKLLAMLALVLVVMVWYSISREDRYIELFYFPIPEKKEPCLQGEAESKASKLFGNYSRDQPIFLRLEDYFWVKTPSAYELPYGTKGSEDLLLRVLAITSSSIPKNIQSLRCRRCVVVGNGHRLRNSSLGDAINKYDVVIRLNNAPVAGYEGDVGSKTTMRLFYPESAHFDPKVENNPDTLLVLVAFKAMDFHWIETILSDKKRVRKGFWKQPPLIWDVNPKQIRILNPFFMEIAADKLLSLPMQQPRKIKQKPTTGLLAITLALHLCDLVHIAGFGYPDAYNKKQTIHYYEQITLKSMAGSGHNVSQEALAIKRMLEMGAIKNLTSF
value_kind: Relative rate (%) ST3

compound: CC(=O)N[C@H]1[C@H](O[C@H]2[C@@H](O)[C@@H](CO)O[C@@H](O[C@H]3[C@H](O)[C@@H](O)C(O)O[C@@H]3CO)[C@@H]2O)O[C@H](CO)[C@@H](O)[C@@H]1O[C@@H]1O[C@H](CO)[C@H](O)[C@H](O)[C@H]1O (some centres unmarked)
target_or_test_system: ST3 (Homo sapiens, UniProt Q11206)
result: 0%

compound: CC(=O)N[C@H]1[C@H](O[C@H]2[C@@H](O)[C@@H](CO)O[C@@H](O[C@H]3[C@H](O)[C@@H](O)C(O)O[C@@H]3CO)[C@@H]2O)O[C@H](CO)[C@@H](O[C@@H]2O[C@H](CO)[C@H](O)[C@H](O)[C@H]2O)[C@@H]1O (some centres unmarked)
target_or_test_system: ST3 (Homo sapiens, UniProt Q11206)
result: 24%

Ref: patent US5858751A
